test system: 885724-159-R-J1-PDC complex spheroid viability; assay: Anticancer human tumor 885724-159-R-J1-PDC patient-derived pancreatic adenocarcinoma cell line growth inhibition [GQUAD]; settings: second compound 3.16 µM; first compound 0.0999 µM; stronger effect = lower value;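 also: spheroids exposed to agents for seven days before readout; percent of vehicle control viability where 100% = DMSO wells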
Entries annotated with measured viability, T/C
Give just the number in %; leave the unit off.

Before answering, review these 5 worked examples.
COMPOUND: CCc1c2c(nc3ccc(O)cc13)-c1cc3c(c(=O)n1C2)COC(=O)[C@]3(O)CC + CN(C)c1ccc(Nc2c3ccc(NC(=O)CCN4CCCC4)cc3nc3cc(NC(=O)CCN4CCCC4)ccc23)cc1
viability, T/C / %: 40.1
//
COMPOUND: CC[C@@]1(O)C(=O)OCc2c1cc1n(c2=O)Cc2cc3c(CN(C)C)c(O)ccc3nc2-1 + Cc1[nH]c2ccc(F)cc2c1-c1nc2c3cccnc3c3ncccc3c2[nH]1
viability, T/C / %: 33.3
//
COMPOUND: CC[C@@]1(O)C(=O)OCc2c1cc1n(c2=O)Cc2cc3c(CN(C)C)c(O)ccc3nc2-1 + Cc1cnc(CNC(=O)c2c(=O)c3ccc(N4CCCN(C)CC4)nc3n3c2sc2ccccc23)cn1
viability, T/C / %: 73.9
//
COMPOUND: Cn1ncnc1[C@H]1c2n[nH]c(=O)c3cc(F)cc(c23)N[C@@H]1c1ccc(F)cc1 + CN(C)c1ccc(Nc2c3ccc(NC(=O)CCN4CCCC4)cc3nc3cc(NC(=O)CCN4CCCC4)ccc23)cc1
viability, T/C / %: 81.6
//
COMPOUND: CCc1c2c(nc3ccc(O)cc13)-c1cc3c(c(=O)n1C2)COC(=O)[C@]3(O)CC + Cc1cnc(CNC(=O)c2c(=O)c3ccc(N4CCCN(C)CC4)nc3n3c2sc2ccccc23)cn1
viability, T/C / %: 36.7

query: Sample CCc1c2c(nc3ccc(O)cc13)-c1cc3c(c(=O)n1C2)COC(=O)[C@]3(O)CC + Cc1[nH]c2ccc(F)cc2c1-c1nc2c3cccnc3c3ncccc3c2[nH]1 — what was its viability, T/C?
result: 14.1

query: Another compound to check: Cn1ncnc1[C@H]1c2n[nH]c(=O)c3cc(F)cc(c23)N[C@@H]1c1ccc(F)cc1 + Cc1cnc(CNC(=O)c2c(=O)c3ccc(N4CCCN(C)CC4)nc3n3c2sc2ccccc23)cn1
result: 81

query: Input Cc1[nH]c2ccccc2c1CCNCc1ccc(/C=C/C(=O)NO)cc1 + Cc1[nH]c2ccc(F)cc2c1-c1nc2c3cccnc3c3ncccc3c2[nH]1
result: 21.2

query: Then Cc1[nH]c2ccccc2c1CCNCc1ccc(/C=C/C(=O)NO)cc1 + CN(C)c1ccc(Nc2c3ccc(NC(=O)CCN4CCCC4)cc3nc3cc(NC(=O)CCN4CCCC4)ccc23)cc1 ?
result: 48.5

query: Further, for Cn1ncnc1[C@H]1c2n[nH]c(=O)c3cc(F)cc(c23)N[C@@H]1c1ccc(F)cc1 + Cc1[nH]c2ccc(F)cc2c1-c1nc2c3cccnc3c3ncccc3c2[nH]1 ?
result: 38

query: What do you get for Cc1[nH]c2ccccc2c1CCNCc1ccc(/C=C/C(=O)NO)cc1 + Cc1cnc(CNC(=O)c2c(=O)c3ccc(N4CCCN(C)CC4)nc3n3c2sc2ccccc23)cn1 ?
result: 49.3

query: Next record, please: CC[C@@]1(O)C(=O)OCc2c1cc1n(c2=O)Cc2cc3c(CN(C)C)c(O)ccc3nc2-1 + CN(C)c1ccc(Nc2c3ccc(NC(=O)CCN4CCCC4)cc3nc3cc(NC(=O)CCN4CCCC4)ccc23)cc1
result: 67.9

The measurements presented in this section are drawn from PubChem BioAssay AID2060502.
